The reported measurements were obtained from ChEMBL document CHEMBL3886567.

molecular target: Serine/threonine-protein kinase B-raf (Homo sapiens, UniProt P15056, V600E); test: Raf IC50 Assay: Compounds disclosed herein were tested against B-Raf (V600E) (PV3849, from Invitrogen) or C-Raf (Y340D/Y341D) (PV3805, from Invitrogen) in a time-resolved fluorescence energy transfer assay. The assay was carried out in reactions (10 uL) containing 0.0625 nM B-Raf or 0.5 nM C-Raf, 25 mM Tris pH7.4, 10 mM MgCl2, 0.5 mM EGTA, 0.5 mM […], 5 mM beta-glycerophosphate, 0.01% Triton X-100, 2.5 mM DTT, 0.1% BSA, 0.1 mM ATP, 13.7 nM GST-tagged MEK1 (Full-length protein with K97R mutation, recombinant protein purified from bacterial expression system) and 0-5 uM compounds disclosed herein (final concentration of 1% DMSO). The enzyme was incubated with the compounds at room temperature for 60 minutes and the reactions were initiated by the addition of ATP and GST-MEK1. After incubating at room temperature for 60 minutes, an equal volume of stop buffer containing 25 mM Tris pH7.4, 400 mM KF, 50 mM EDTA, 0.01% BSA, 0.01% Triton X-100, 1 test of Eu3+ Cryptate-conjugated rabbit polyclonal antibody anti-Phospho MEK1/2 (Ser217/221) and 1 test of d2-conjugated mouse monoclonal antibody anti-glutathione S-transferase was added to stop the reactions. Plates were sealed and incubated at room temperature for 2 hours, and then the TR-FRET signals were read on BMG PHERAstar FS instrument. The IC50 for each compound was calculated by non linear regression by Graphpad Prism software.
Sequence (P15056 2-766 V600E limits assumed): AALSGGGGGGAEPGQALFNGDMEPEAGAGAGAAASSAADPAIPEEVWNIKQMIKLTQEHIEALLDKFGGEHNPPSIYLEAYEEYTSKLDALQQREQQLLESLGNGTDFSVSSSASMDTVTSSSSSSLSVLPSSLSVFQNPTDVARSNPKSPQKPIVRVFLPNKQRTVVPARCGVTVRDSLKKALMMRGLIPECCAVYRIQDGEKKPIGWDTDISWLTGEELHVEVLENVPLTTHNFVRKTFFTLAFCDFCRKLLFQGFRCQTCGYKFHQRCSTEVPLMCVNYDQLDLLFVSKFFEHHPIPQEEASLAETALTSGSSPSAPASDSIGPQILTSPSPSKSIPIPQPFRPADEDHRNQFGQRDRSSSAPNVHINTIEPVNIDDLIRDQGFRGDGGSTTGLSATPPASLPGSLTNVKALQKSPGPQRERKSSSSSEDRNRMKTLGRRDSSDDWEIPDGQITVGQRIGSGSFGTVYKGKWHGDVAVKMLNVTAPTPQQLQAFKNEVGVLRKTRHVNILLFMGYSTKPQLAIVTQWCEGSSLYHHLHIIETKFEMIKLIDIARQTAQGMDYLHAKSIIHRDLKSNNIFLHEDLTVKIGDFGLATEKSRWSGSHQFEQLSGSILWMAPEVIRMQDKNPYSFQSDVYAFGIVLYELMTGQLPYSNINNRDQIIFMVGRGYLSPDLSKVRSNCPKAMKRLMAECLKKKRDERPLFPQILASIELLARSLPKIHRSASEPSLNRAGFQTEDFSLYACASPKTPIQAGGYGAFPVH
# IC50 listing for each entry below
REPORTED_ENDPOINT: IC50 (nM)

1. O=C1CCc2c(Oc3ccc4c(c3)C3C(C4)C3c3nc4ccc(C(F)(F)F)cc4[nH]3)ccnc2N1 (racemic): 72
2. O=C1CCc2c(Oc3ccc4c(c3)C3C(O4)C3c3nc4cccc(Cl)c4[nH]3)ccnc2N1 (racemic): 16
3. O=C1CCc2c(Oc3ccc4c(c3)C3C(O4)C3c3nc4ccc(-c5ccccc5)cc4[nH]3)ccnc2N1 (racemic): 232
4. O=C1CCc2c(Oc3ccc4c(c3)C3C(O4)C3c3nc4ccc(C(F)(F)F)cc4[nH]3)ccnc2N1 (racemic): 7.2
